# key: entry, value: half-life
- procedure_summary: Pharmacokinetic study on ICR mice (plasma, LC-MS/MS)
- Format: in vivo
- assay_context: male, mouse, 5 mg/kg, oral intake, read-out: Half-life T1/2(h) (converted)
Write the number in h without appending the unit.

Worked cases, answers included:
> print(dat)
                                   compound  value
1  C[C@H]1Nc2ccn3ncc(c3n2)C(=O)NCC2(C)Cc3cc(F)cc1c3O2 (stereo partly shown)   2.03
2  C[C@H]1Nc2ccn3nc(N)c(c3n2)C(=O)NC[C@@]2(C)Cc3cc(F)cc1c3O2   3.15
3  C[C@H]1Nc2ccn3ncc(c3n2)C(=O)NC[C@@]2(C)Cc3cc(F)cc1c3O2   1.54

// below: half-life requested for another compound
Note to self: half-life recorded for C[C@H]1CNC(=O)c2cnn3ccc(nc23)N[C@H](C)c2cc(F)ccc2O1 [repotrectinib, reference compound] was 2.93

====

- Tested on: BAF3 LMNA-TRKA^WT
- procedure_summary: Cell proliferation assay (CellTiter-Glo), BAF3 LMNA-TRKA WT
- Assay type: cell-based
- assay_context: Mus musculus, 72 hours
reported_endpoint: IC50 (nM)
Write the number in nM without appending the unit.

> print(dat)
                                   molecule  result.units  value
1  C[C@H]1Nc2ccn3nc(N)c(c3n2)C(=O)NC[C@@]2(C)Cc3cc(F)cc1c3O2 [Example 25]            nM    1.2

// below: IC50 requested for another molecule
Note to self: IC50 recorded for C[C@H]1Nc2ccn3ncc(c3n2)C(=O)NC[C@@]2(C)Cc3cc(F)cc1c3O2 [Example 8] was 1.5

====

# key: entry, value: half-life
- procedure_summary: Pharmacokinetic study on ICR mice (plasma, LC-MS/MS)
- Format: in vivo
- assay_context: male, mouse, intravenous, 1 mg/kg, injection, read-out: Half-life T1/2(h) (converted)
- Procedure: ICR mice, male, 29.0 g to 33.8g, purchased from Beijing Charles River Laboratory Animal Technology Co., Ltd. Intravenous injection group: an appropriate amount of drug was weighed, and added with mixed solvent (DMA: 30% Solutol HS-15: Saline = 10: 10: 80 (v/v/v)) to prepare the drug with a final concentration of 0.2 mg/mL. […]
Write the number in h without appending the unit.

Worked cases, answers included:
> print(dat)
                                   compound  reported.endpoint  value
1  C[C@H]1Nc2ccn3ncc(c3n2)C(=O)NCC2(C)Cc3cc(F)cc1c3O2 (stereo partly shown)          half-life   1.79
2  C[C@H]1Nc2ccn3ncc(c3n2)C(=O)NC[C@@]2(C)Cc3cc(F)cc1c3O2          half-life   1.47
3  C[C@H]1Nc2ccn3nc(N)c(c3n2)C(=O)NC[C@@]2(C)Cc3cc(F)cc1c3O2          half-life   1.54

Note to self: half-life recorded for C[C@H]1CNC(=O)c2cnn3ccc(nc23)N[C@H](C)c2cc(F)ccc2O1 [repotrectinib, reference compound] was 3.9

====

- target_or_test_system: TRKA(G667C) (Homo sapiens, UniProt P04629, G667C)
- Construct: purchased SignalChem N16-12CG-10
- Sequence (P04629 33-796 G667C): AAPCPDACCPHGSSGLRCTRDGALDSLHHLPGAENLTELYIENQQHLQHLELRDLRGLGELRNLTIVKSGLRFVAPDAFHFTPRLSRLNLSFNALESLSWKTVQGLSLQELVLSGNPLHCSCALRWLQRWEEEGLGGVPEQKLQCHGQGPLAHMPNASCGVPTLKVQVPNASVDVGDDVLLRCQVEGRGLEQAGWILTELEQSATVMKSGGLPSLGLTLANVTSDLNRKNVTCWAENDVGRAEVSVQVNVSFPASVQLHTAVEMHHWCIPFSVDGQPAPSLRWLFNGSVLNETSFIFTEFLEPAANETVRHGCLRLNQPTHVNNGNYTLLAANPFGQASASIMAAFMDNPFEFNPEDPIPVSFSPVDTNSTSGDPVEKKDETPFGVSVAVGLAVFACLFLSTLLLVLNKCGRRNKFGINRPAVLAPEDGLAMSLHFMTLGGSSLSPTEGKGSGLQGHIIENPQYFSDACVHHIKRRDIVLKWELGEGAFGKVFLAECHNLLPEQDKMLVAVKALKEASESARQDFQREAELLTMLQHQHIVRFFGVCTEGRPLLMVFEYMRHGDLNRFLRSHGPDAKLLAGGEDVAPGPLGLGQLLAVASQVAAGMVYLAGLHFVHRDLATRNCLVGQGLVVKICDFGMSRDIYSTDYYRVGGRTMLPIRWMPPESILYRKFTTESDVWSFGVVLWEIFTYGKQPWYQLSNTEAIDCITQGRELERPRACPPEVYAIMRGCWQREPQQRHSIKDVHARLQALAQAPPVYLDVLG
- procedure_summary: HTRF KinEASE-TK kinase activity inhibition assay, TRKA(G667C)
- Format: biochemical
- assay_context: ATP 1 µM
reported_endpoint: IC50 (nM)
Write the number in nM without appending the unit.

Worked cases, answers included:
> print(dat)
                                   compound  value
1  C[C@H]1Nc2ccc3ncc(n3n2)C(=O)NC[C@@]2(C)Cc3cc(F)cc1c3O2   15.5
2  C[C@H]1Nc2ccn3ncc(c3n2)C(=O)NCC2(C)Cc3cc(Cl)cc1c3O2 (stereo partly shown)    4.6
3  C[C@H]1Nc2ccn3nc(N)c(c3n2)C(=O)NC[C@@]2(C)Cc3cc(F)cc1c3O2    9.5
4  C[C@H]1Nc2ccn3ncc(c3n2)C(=O)NCC2(CF)Cc3cc(F)cc1c3O2 (stereo partly shown)   6.11
5  C[C@H]1Nc2ccn3ncc(c3n2)C(=O)NCC[C@]2(C)Cc3cc(F)cc1c3O2   24.6
6  C[C@H]1Nc2ccn3ncc(c3n2)C(=O)NCC[C@@]2(C)Cc3cc(F)cc1c3O2    4.2

// below: IC50 requested for another compound
Note to self: IC50 recorded for `C[C@H]1Nc2ccn3ncc(c3n2)C(=O)NC[C@@H]2COc3cc(F)cc1c3O2` was 21.1

====

- target_or_test_system: ROS1 (Homo sapiens)
- Construct: purchased SignalChem R14-11G-10
- Sequence (P08922 28-2347): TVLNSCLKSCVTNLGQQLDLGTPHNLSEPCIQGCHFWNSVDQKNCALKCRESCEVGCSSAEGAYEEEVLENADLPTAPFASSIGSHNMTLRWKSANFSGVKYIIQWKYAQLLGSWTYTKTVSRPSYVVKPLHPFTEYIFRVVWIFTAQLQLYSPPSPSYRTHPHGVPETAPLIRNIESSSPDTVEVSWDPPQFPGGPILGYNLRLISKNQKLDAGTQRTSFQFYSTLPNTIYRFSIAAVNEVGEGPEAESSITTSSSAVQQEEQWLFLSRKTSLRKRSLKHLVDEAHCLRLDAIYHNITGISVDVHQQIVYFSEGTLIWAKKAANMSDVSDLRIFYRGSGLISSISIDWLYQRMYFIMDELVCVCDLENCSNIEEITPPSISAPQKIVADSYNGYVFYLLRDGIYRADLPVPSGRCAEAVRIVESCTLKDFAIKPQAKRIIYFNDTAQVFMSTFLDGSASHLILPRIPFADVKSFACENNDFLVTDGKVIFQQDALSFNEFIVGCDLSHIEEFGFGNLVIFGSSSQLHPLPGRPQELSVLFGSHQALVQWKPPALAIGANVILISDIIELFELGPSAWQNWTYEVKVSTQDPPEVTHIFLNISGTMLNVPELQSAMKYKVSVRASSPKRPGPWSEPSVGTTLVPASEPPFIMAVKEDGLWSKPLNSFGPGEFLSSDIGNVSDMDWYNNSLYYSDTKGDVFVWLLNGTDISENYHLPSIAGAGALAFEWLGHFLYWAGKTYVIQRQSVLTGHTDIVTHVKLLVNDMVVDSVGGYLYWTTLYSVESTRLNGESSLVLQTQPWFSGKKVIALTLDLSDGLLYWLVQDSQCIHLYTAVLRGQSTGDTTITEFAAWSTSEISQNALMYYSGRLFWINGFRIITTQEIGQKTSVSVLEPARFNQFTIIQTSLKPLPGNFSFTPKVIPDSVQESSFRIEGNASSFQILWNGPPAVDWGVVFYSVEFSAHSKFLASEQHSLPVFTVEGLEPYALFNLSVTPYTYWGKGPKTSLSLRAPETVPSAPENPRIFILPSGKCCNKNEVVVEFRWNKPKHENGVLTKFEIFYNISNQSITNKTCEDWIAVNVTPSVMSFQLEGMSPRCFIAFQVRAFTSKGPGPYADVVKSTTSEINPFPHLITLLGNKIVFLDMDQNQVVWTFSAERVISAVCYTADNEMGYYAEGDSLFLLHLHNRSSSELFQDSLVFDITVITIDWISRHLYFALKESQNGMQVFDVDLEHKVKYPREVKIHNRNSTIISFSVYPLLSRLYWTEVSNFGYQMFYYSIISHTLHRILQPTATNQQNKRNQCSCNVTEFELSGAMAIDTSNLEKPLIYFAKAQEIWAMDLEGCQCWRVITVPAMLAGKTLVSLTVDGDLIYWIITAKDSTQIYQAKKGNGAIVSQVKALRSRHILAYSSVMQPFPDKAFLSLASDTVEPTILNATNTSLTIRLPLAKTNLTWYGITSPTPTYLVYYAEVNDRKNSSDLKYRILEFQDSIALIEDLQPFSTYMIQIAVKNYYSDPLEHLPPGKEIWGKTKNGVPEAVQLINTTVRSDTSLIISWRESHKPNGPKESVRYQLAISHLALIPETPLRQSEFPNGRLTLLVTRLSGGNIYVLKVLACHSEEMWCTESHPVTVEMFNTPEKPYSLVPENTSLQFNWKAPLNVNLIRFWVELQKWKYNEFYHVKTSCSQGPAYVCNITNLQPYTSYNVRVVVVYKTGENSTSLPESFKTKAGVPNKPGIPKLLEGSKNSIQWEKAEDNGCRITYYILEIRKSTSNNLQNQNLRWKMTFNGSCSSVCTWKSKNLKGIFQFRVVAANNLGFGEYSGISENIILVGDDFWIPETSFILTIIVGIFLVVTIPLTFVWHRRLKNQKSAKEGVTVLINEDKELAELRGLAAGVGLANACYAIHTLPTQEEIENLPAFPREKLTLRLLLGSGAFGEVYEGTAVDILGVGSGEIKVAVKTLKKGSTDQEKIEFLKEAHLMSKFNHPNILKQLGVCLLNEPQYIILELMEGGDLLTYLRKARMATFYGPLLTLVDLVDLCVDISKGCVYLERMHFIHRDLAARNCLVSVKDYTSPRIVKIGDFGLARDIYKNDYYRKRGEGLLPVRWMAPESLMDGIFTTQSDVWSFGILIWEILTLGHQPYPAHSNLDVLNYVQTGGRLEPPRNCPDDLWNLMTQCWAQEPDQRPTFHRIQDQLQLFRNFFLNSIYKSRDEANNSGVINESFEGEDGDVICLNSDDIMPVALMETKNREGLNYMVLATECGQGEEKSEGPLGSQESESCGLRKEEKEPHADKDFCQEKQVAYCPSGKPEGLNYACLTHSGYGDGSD
- procedure_summary: HTRF KinEASE-TK kinase activity inhibition assay, ROS1
- Assay type: biochemical
- assay_context: ATP 1 µM
# key: entry, value: IC50
Write the number in nM without appending the unit.

> print(dat)
                                   compound  result.units  value
1  C[C@H]1Nc2ccn3nc(N)c(c3n2)C(=O)NC[C@@]2(C)Cc3cc(F)cc1c3O2 [Example 25]            nM   0.84

// below: IC50 requested for another compound
Note to self: IC50 recorded for C[C@H]1Nc2ccn3ncc(c3n2)C(=O)NC[C@@]2(C)Cc3cc(F)cc1c3O2 [Example 8] was 0.36

====

- target_or_test_system: TRKC (Homo sapiens, UniProt Q16288)
- Construct: purchased Carna bioscience 08-197
- Sequence (Q16288 32-839): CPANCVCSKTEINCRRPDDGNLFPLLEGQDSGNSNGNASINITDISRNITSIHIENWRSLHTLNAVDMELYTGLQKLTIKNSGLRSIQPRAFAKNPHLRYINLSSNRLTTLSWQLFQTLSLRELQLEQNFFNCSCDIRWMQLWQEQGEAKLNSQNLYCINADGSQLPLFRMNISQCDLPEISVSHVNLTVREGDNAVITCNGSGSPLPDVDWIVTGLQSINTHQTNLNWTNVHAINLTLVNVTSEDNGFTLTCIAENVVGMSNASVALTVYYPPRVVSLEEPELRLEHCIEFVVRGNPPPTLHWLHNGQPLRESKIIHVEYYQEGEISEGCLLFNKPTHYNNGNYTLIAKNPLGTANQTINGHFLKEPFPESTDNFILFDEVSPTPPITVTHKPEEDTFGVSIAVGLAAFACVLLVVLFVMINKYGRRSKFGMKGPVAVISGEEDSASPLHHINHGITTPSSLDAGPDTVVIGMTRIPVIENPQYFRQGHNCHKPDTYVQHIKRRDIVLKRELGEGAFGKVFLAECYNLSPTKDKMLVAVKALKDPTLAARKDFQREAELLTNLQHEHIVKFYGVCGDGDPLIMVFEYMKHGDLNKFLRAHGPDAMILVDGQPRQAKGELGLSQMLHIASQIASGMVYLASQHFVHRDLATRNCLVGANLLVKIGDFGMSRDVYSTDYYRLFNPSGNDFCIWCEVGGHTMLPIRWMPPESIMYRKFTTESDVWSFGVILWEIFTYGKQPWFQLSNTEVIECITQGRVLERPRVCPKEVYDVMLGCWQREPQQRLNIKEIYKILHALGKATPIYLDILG
- procedure_summary: HTRF KinEASE-TK kinase activity inhibition assay, TRKC
- Format: biochemical
- assay_context: ATP 50 µM
reported_endpoint: IC50 (nM)
Write the number in nM without appending the unit.

Worked cases, answers included:
> print(dat)
                                smiles.data  value
1  C[C@H]1Nc2ccn3ncc(c3n2)C(=O)NC[C@]2(C)Cc3cc(F)c(F)c1c3O2   0.63
2  C[C@H]1Nc2ccn3nc(N)c(c3n2)C(=O)NC[C@@]2(C)Cc3cc(F)cc1c3O2    0.7

// below: IC50 requested for another compound
Note to self: IC50 recorded for `C[C@H]1Nc2ccn3ncc(c3n2)C(=O)NCC[C@H]2Cc3cc(F)cc1c3O2` was 0.47

====

- procedure_summary: Pharmacokinetic study on ICR mice (plasma, LC-MS/MS)
- Assay type: in vivo
- assay_context: male, mouse, 5 mg/kg, oral intake, read-out: Blood concentration Cmax
reported_endpoint: Cmax (ng/mL)
Write the number in ng/mL without appending the unit.

Worked cases, answers included:
> print(dat)
                                   molecule  value
1  C[C@H]1Nc2ccn3ncc(c3n2)C(=O)NCC2(C)Cc3cc(F)cc1c3O2 (stereo partly shown)   2600
2  C[C@H]1Nc2ccn3ncc(c3n2)C(=O)NC[C@@]2(C)Cc3cc(F)cc1c3O2   2260
3  C[C@H]1Nc2ccn3nc(N)c(c3n2)C(=O)NC[C@@]2(C)Cc3cc(F)cc1c3O2   1050

// below: Cmax requested for another molecule
Note to self: Cmax recorded for C[C@H]1CNC(=O)c2cnn3ccc(nc23)N[C@H](C)c2cc(F)ccc2O1 [repotrectinib, reference compound] was 154

====

# key: entry, value: IC50
- target_or_test_system: TRKA (Homo sapiens, UniProt P04629)
- Construct: purchased Carna bioscience 08-186
- Sequence (P04629 33-796): as the sequence (P04629 33-796 G667C) above, with C635G counted along it
- procedure_summary: HTRF KinEASE-TK kinase activity inhibition assay, TRKA
- Format: biochemical
- assay_context: ATP 100 µM
Write the number in nM without appending the unit.

> print(dat)
                                   molecule  reported.endpoint  value
1  C[C@H]1Nc2ccn3ncc(c3n2)C(=O)NC[C@@H]2COc3cc(F)cc1c3O2 [Example 7]               IC50   2.05
2  C[C@H]1Nc2ccn3ncc(c3n2)C(=O)NCC2(CO)Cc3cc(F)cc1c3O2 (some centres unmarked) [Example 19]               IC50    3.4
3  C[C@H]1Nc2ccn3ncc(c3n2)C(=O)NCC2Cc3cc(F)cc1c3O2 (some centres unmarked) [Example 1]               IC50   1.66

// below: IC50 requested for another molecule
Note to self: IC50 recorded for C[C@H]1Nc2ccn3ncc(c3n2)C(=O)NCC2(C)Cc3cc(F)cc1c3O2 (some centres unmarked) [Example 5] was 0.92

====

- target_or_test_system: ALK(L1196M, G1202R) (Homo sapiens, UniProt Q9UM73, G1202R/L1196M)
- Construct: purchased SignalChem A19-12NG-10
- procedure_summary: HTRF KinEASE-TK kinase activity inhibition assay, ALK(L1196M, G1202R)
- Format: biochemical
- assay_context: ATP 25 µM
# key: entry, value: IC50

> print(dat)
                                smiles.data    value
1  C[C@H]1Nc2ccn3ncc(c3n2)C(=O)NC[C@@]2(C)Cc3cc(F)cc1c3O2  20.7 nM

Note to self: IC50 recorded for `C[C@H]1Nc2ccn3nc(N)c(c3n2)C(=O)NC[C@@]2(C)Cc3cc(F)cc1c3O2` was 24.2 nM
